# assayOverview: chemical genetic growth profiling, strain panel (AID 1159580);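 also: tested at 20 µM; growth read once vehicle control cultures reached saturation at 30 °C; 1 = growth at the plate median or of vehicle wells; lower values mean less growth of the strain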
# settings: S. cerevisiae deletion strains, growth OD, locus YBR136W, strain MEC1, hits give low values
Screen size: about 5,500 compounds; about 2,000 (36%) were called active. Not shown: some 18% with an inconclusive outcome. This is one part of the list.
# normalized growth listing for each entry below
# output: bare number, no unit

Example entries begin here.
compound=N#Cc1c(Cl)c(Cl)c(Cl)c(Cl)c1C#N quantityname="normalized growth" endpointresult=0.716
compound=O=C(Oc1cc(Cl)c(Cl)cc1Cl)C1c2ccccc2Oc2ccccc21 quantityname="normalized growth" endpointresult=0.937
compound=Cc1c(C(=O)N2CCCCC2)cc(-c2ccccc2)n1-c1ccccc1 quantityname="normalized growth" endpointresult=0.969

Next compound, normalized growth to be filled in.
Query :: I have this compound here, Cc1c(Cl)cccc1NC(=S)N1CCCN(c2nc3ccc(Cl)cc3s2)CC1 , and I need its recorded normalized growth.
Result :: 0.979

###

Some compounds, each annotated with its measured normalized growth.
# assayOverview: chemical genetic growth profiling, strain panel (AID 1159580)
# settings: S. cerevisiae deletion strains, growth OD, locus YJR075W, strain HOC1, hits give low values
The whole screen tested about 5,500 compounds, of which about 2,000 (36%) were called active. Inconclusive results (about 18%) are left out. The list shows a part of the results.
Please reply with the value in numeric form only.

compound=CCCCOc1ccc(C(=O)CCN2CCCCC2)cc1 quantityname="normalized growth" endpointresult=0.66

Query :: Quick check: normalized growth of Cc1c(C(=O)O)cc(-c2ccccc2)n1-c1ccccc1 ?
Result :: 0.959

Query :: // repeat for Cc1nn(-c2ccccc2)nc1C(=O)NC(=O)N1CCCC1 and report
Result :: 0.995

Query :: Same read-out for Cc1c(N(C)C)c(=O)n(-c2ccccc2)n1C ?
Result :: 0.997

Query :: Repeat for the following compound: NC(N)=NOCC[C@H](N)C(=O)O
Result :: 0.983

###

A collection of compounds and their measured normalized growth
# assayOverview: chemical genetic growth profiling, strain panel (AID 1159580)
# settings: S. cerevisiae deletion strains, growth OD, locus YOR270C, strain vph1, hits give low values
Among all 5,500 compounds or so, about 2,000 (36%) were called active. Inconclusive results (about 18%) are left out. The list shows a part of the results.
Answer with a number only.

These recorded examples may help you get a feel for the data.
compound=COc1ccc(-c2coc3c(O)c(OC)ccc3c2=O)cc1 endpointresult=0.888
compound=COc1ccc2c(c1)[C@@]1(C)CCC(=O)C[C@H]1CC2 endpointresult=0.997
compound="CC1(C)C2CC[C@]3(C)C(C(=O)C=C4[C@@H]5C[C@@](C)(C(=O)O)CC[C@]5(C)CC[C@]43C)[C@@]2(C)CC[C@@H]1OC(=O)CCC(=O)O (some centres undefined)" endpointresult=0.867

Query :: Quick one: normalized growth for COc1cccc2c1CCC1CC(=O)CCC21C (centres undefined) ?
Result :: 0.907

Query :: Continue with Cc1ccc2c(c1)CC[C@H]1CC(=O)CC[C@]21C
Result :: 0.889

Query :: Would you mind doing COc1ccc(-c2coc3c(OC)c(OC)cc(O)c3c2=O)cc1 as well?
Result :: 0.945

###

# assayOverview: chemical genetic growth profiling, strain panel (AID 1159580)
# settings: S. cerevisiae deletion strains, growth OD, locus YJL168C, strain set2
Hit rate of the full screen: of about 5,500 compounds, about 2,000 (36%) were called active. Roughly 18% stayed inconclusive and do not appear here. Rule as the data show it: active = normalized growth mostly below about 0.91 (no sharp cut-off); inconclusive = no clear call, values can overlap the other calls; inactive = mostly above about 0.92. Some of the results follow.
Give one outcome, nothing more. List: active, inactive

Solved cases below.
compound="O=C(O)C1CC([C@@H]2CCCCN2)CN2CCCCC12 (stereo partly drawn)" cat=inactive
compound="CC(=O)O[C@]1(C(C)=O)CCC2C3C[C@H](C)C4=CC(=O)CC[C@]4(C)C3CC[C@@]21C (stereo partly drawn)" cat=inactive
compound="COc1ccc(C2CC(=O)c3ccc(OC)cc3O2)cc1 (stereo not drawn)" cat=inactive
compound="COc1ccc(CC2c3cc(OC)c(OC)cc3CCN2C)cc1OC (stereo not drawn)" cat=inactive
compound=NC(N)=Nc1nc(CSCCC(N)=NS(N)(=O)=O)cs1 cat=inactive
compound=c1ccc(CN(CC2=NCCN2)c2ccccc2)cc1 cat=inactive
compound=c1ccc(CC2=NCCN2)cc1 cat=active
compound="CCc1ccc(CCOc2ccc(CC3SC(=O)NC3=O)cc2)nc1 (stereo not drawn)" cat=inactive
compound="CCCCCC(=O)O[C@]1(C(C)=O)CCC2C3CCC4=CC(=O)CC[C@]4(C)C3CC[C@@]21C (stereo partly drawn)" cat=inactive
compound=COc1ccc2c(c1)[C@@]1(C)CCC(=O)C[C@H]1CC2 cat=inactive

Query :: So what was the verdict on COC(=O)c1c(Cl)c(Cl)c(C(=O)OC)c(Cl)c1Cl in this test?
Result :: inactive

Query :: Lookup COc1ccc([C@@H]2CC(=O)c3c(O)cc(O)cc3O2)cc1O
Result :: inactive

Query :: Entry COc1ccc2c(c1)C1(C)CCC(=O)CC1CC2 (stereo not drawn) please
Result :: inactive

###

# assayOverview: chemical genetic growth profiling, strain panel (AID 1159580);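 also: tested at 20 µM; growth read once vehicle control cultures reached saturation at 30 °C; 1 = growth at the plate median or of vehicle wells; lower values mean less growth of the strain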
# settings: S. cerevisiae deletion strains, growth OD, locus YOR083W, strain WHI5, hits give low values
Hit rate of the full screen: of about 5,500 compounds, about 2,000 (36%) were called active. About 18% were inconclusive and are not listed. The list shows a part of the results.
quantityName: normalized growth
// keep it numeric: no unit symbol after the value

compound="COC(=O)C1[C@H]2C[C@H]3c4[nH]c5ccccc5c4CCN3C[C@@H]2CC[C@@H]1O (stereo partly drawn)" endpointresult=0.979
compound=O=c1ccc2ccccc2o1 endpointresult=0.972
compound=CCCCOc1ccc(OCCCN2CCOCC2)cc1 endpointresult=0.931
compound=c1ccc(CN(CC2=NCCN2)c2ccccc2)cc1 endpointresult=1.02
compound=CCc1nc(N)nc(N)c1-c1ccc(Cl)cc1 endpointresult=0.936

Query :: Look at this compound and give its reported normalized growth. CNc1ccccc1C(=O)N1CCc2c([nH]c3ccccc23)C1=O
Result :: 0.967

Query :: Likewise for Cn1cc[nH]c1=S ?
Result :: 0.922

Query :: Note, next up: C[N+](C)(C)CCOP(=O)([O-])OP(=O)(O)OC[C@H]1OC(n2ccc(N)nc2=O)[C@H](O)[C@@H]1O (stereo partly drawn)
Result :: 0.989

###

# assayOverview: chemical genetic growth profiling, strain panel (AID 1159580);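 also: tested at 20 µM; growth read once vehicle control cultures reached saturation at 30 °C; 1 = growth at the plate median or of vehicle wells; lower values mean less growth of the strain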
# settings: S. cerevisiae deletion strains, growth OD, strain wtn01
Hit rate of the full screen: of about 5,500 compounds, about 2,000 (36%) were called active. About 18% were inconclusive and are not listed. Rule as the data show it: active = normalized growth mostly below about 0.91 (no sharp cut-off); inconclusive = no clear call, values can overlap the other calls; inactive = mostly above about 0.92. The list shows a part of the results.
Your reply should match one of these outcome classes. active, inactive

Use the examples below as a reference point.
compound=C[CH2][Hg][S]c1ccccc1C(=O)O cat=active
compound="CCc1cccc(C)c1N(C(=O)CCl)C(C)COC (stereo not given)" cat=inactive
compound="CN1C2CC3C[C@H]1C(O3)C2O (stereo not given in full)" cat=inactive
compound=COC(=O)COc1ccc(Cl)cc1Cl cat=inactive
compound=CNc1ccccc1C(=O)N1CCc2c([nH]c3ccccc23)C1=O cat=inactive
compound="O=C(O)C1C(O)CCC2CN3CCc4c([nH]c5ccccc45)C3CC21 (stereo not given)" cat=inactive
compound="CCc1ccc(CCOc2ccc(CC3SC(=O)NC3=O)cc2)nc1 (stereo not given)" cat=inactive
compound=O=C(O)COc1cc(Cl)c(Cl)cc1Cl cat=inactive
compound=CCCCCCCCCCCCC[N+](C)(C)Cc1ccccc1 cat=active
compound=CC(C)=CCc1c(O)cc(C)oc1=O cat=inactive

Query :: Call for entry CCC(C(N)=O)c1ccccc1 (stereo not given) :
Result :: inactive

###

# assayOverview: chemical genetic growth profiling, strain panel (AID 1159580);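 also: tested at 20 µM; growth read once vehicle control cultures reached saturation at 30 °C; 1 = growth at the plate median or of vehicle wells; lower values mean less growth of the strain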
# settings: S. cerevisiae deletion strains, growth OD, locus YGL173C, strain kem1, hits give low values
About 2,000 (36%) of roughly 5,500 compounds were called active. Another 18% or so got no clear call; they are omitted. The list shows a part of the results.
quantityName: normalized growth
When you answer, write just the number.

Use the examples below as a reference point.
compound=COc1cccc([C@]2(O)CCCC[C@H]2CN(C)C)c1 quantityname="normalized growth" endpointresult=0.952
compound=OCc1ccccc1O[C@@H]1O[C@H](CO)[C@@H](O)[C@H](O)[C@H]1O quantityname="normalized growth" endpointresult=0.995
compound="CC(=O)O[C@]1(C(C)=O)CCC2C3C=C(C)C4=CC(=O)CCC4(C)C3CCC21C (stereo not given in full)" quantityname="normalized growth" endpointresult=0.92
compound=Cc1cc(=O)c2c(O)cc(O)c(C)c2o1 quantityname="normalized growth" endpointresult=0.946
compound=O=C(/C=C/c1ccccc1)O[C@H]1C[C@@H](O)[C@]2(O)C=CO[C@@H](O[C@@H]3O[C@H](CO)[C@@H](O)[C@H](O)[C@H]3O)[C@H]12 quantityname="normalized growth" endpointresult=1.03

Query :: Reported normalized growth, compound CC(=O)O[C@@](C)(CCC=C(C)C)C1CC=C(C)CC1 (stereo not given in full) : ____
Result :: 0.984

Hello, the source for this data is PubChem BioAssay AID1159580, in case you need it.
